test system: Plasmodium yoelii; assay: Prophylactic activity in infected mouse at 2.5 mg/kg peroral administration, expressed as no of organisms survived; Total organisms= 5; settings: route oral
The following molecules are shown together with reported Activity values.
No unit in the answer, only the number.

Solved cases (3 shown):
COc1cc(C)c2c(Oc3cccc(C(F)(F)F)c3)c(OC)cc(NC(C)CCCN)c2n1 (stereo unspecified) :: 3
CCOC(=O)/N=C(\NC1=NC(=O)C(=O)N1C(C)C)Nc1ccc(Cl)c(Cl)c1 :: 0
CC(C)/N=C(/NC(=O)OC(C)(C)C)NC1=NC(=O)C(=O)N1c1ccc(Cl)c(Cl)c1 :: 2

stdin: Look up and report measured Activity (Plasmodium yoelii) for the following molecule: Cc1oc(=O)oc1COC(=O)/N=C(\NC1=NC(=O)C(=O)N1C(C)C)Nc1ccc(Cl)c(Cl)c1
stdout: 0

stdin: Look up and report measured Activity (Plasmodium yoelii) for the following molecule: CC(C)/N=C(/NC(=O)OCc1ccccc1)NC1=NC(=O)C(=O)N1c1ccc(Cl)c(Cl)c1
stdout: 0

stdin: Look up and report measured Activity (Plasmodium yoelii) for the following molecule: CC(C)COC(=O)N/C(=N/C(C)C)NC1=NC(=O)C(=O)N1c1ccc(Cl)c(Cl)c1
stdout: 1

Data origin: ChEMBL document CHEMBL1141117
